Listing of entries alongside the reported inhibition.
# assayProcedure: inhibitors of TNFa-induced NFkB p65 translocation, primary screen, imaging, HUVEC, MLSMR starter and 10KST1 sets (AID 438);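 also: compound added about 3h40 before a 20 min TNFalpha stimulation; signal is the nuclear over cytoplasmic p65 intensity ratio per well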
# testConditions: HUVEC TNFa-induced p65 nuclear translocation; at 2 µM, active compounds read high, 0% TNFa-plus-vehicle, 100% no-TNFa wells
Your answer is read as %, so omit the unit and give the number.

Observe how each entry below is paired with its result.
>>> df
                                   molecule  recordedmeasurement
0  COc1ccc(C)cc1-n1nnnc1SC/C(O)=C(\C#N)c1nc2ccccc2[nH]1                  5.1
1          O=C(NCCSc1c[nH]c2ccccc12)c1ccco1                 -2.4
2           CC(C)OC(=O)CSc1nnc(-c2ccco2)n1N                    0
3  OCCNCC(O)Cn1ccc2ccccc21 (stereo not drawn)                 -8.2
4        O=C(O)Cn1cc(C(=O)c2ccco2)c2ccccc21                 16.3

Looking up Cc1ccccc1-c1nc(CN2CCC(C(=O)NCc3cccnc3)CC2)c(C)o1 , I see its inhibition listed as -2.3

The molecule listed as COC(=O)C(C)Sc1nc2c(c(=O)n(C)c(=O)n2C)n1Cc1cccc(C)c1 (stereo not drawn) has a reported inhibition of 3.8

For Cc1cc(NC(=O)CSc2nc(C3CC3)nc3sc4c(c23)CCC(C)C4)no1 (stereo not drawn) the molecule record lists inhibition as -1.3

inhibition reported for this molecule COCc1cc(C)nc(SCC(=O)Nc2cccc(C)c2C)c1C#N : -25.9

inhibition reported for this molecule c1ccc(-c2nc3nonc3c3nc4ccccc4n23)cc1 : -12.4

Lab note: measured inhibition of O=C(C(Cc1ccccc1)n1cccc1)N1CCCCCC1 (stereo not drawn) was -1.6

Measured inhibition, CN(C)S(=O)(=O)Nc1ccccc1C(N)=O : -9.8

# inhibition (molecule: Cc1ccc(C)c(N2CCN(C(=O)c3ccc(CS(=O)(=O)c4ccccc4C)o3)CC2)c1 ) is -15.1

The reported inhibition of the molecule Cc1cc(C)c2c(n1)nn1c(NCCCN3CCOCC3)cc(C)nc21 was -4.5

Entry CSc1ccccc1NC(=O)CN(c1ccccc1)S(=O)(=O)N(C)C , inhibition reported as -0.8

C=CCn1c(Cc2csc(N)n2)nnc1SCC(=O)OCC has a reported inhibition of -3.5

Reported inhibition for CCN(CC)S(=O)(=O)c1ccc(Cl)c(C(=O)OC)c1 was -5

Query CSC1=C(C#N)C(c2ccc(C)cc2)C2=C(CCCC2=O)N1 (stereo not drawn) yields inhibition of -15.9

Please fill in: inhibition reported for CCOC(=O)N1CCC(NC(=O)c2ccc3c(c2)N(CC)CCS3)CC1 = -2.4

Per the record, CCOC(=O)C1CCN(C(=O)CN(c2ccc(Cl)c(C(F)(F)F)c2)S(C)(=O)=O)CC1 has inhibition of -23.5

Entry O=C(O)CCNc1ccc2c(c1)OCCO2 , inhibition reported as -26.5

inhibition measured on Cc1ccc(S(=O)(=O)N2CCC(C(=O)N3CCN(Cc4ccccc4)CC3)CC2)cc1 = -14

What the record says about Cc1cc(C)n(C(=O)C23CC4CC(CC(C4)C2)C3)n1 : inhibition is 0.9
